molecular target: HGFR (Homo sapiens); construct: purchased Upstate 14-526; experiment: HGFR continuous-coupled spectrophotometric assay; assay type: biochemical
Sequence (P08581 974-1390 limits assumed): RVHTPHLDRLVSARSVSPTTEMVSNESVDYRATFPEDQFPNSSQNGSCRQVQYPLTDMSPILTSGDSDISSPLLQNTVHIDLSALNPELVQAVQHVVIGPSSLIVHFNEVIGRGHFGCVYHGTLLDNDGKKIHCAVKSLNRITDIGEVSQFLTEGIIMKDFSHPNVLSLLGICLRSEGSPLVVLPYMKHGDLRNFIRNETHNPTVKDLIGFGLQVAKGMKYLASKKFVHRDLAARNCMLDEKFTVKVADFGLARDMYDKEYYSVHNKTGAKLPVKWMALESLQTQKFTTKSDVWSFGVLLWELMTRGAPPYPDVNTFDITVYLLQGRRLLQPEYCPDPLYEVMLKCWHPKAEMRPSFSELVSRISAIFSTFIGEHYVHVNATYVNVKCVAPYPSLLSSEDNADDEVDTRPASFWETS
measure: % inhibition

# example entries with known answers
Value wanted: % inhibition (HGFR (Homo sapiens)) of entry Cc1cccc(COc2cc(-c3ccc(C(=O)N4CCC(N5CCCC5)CC4)cc3)cnc2N)n1
% inhibition = 17

Can you check Nc1ncc(-c2ccc(C(=O)N3CCC(N4CCCC4)CC3)cc2)cc1OCc1cccc(Cl)c1F next?
% inhibition = 28

Can you check Nc1ncc(-c2ccc(C(=O)N3CCC(N4CCCC4)CC3)cc2)cc1OCc1ccc(C(=O)NCCc2ccccn2)cc1 next?
% inhibition = 11

Can you check Nc1ncc(-c2ccc(C(=O)N3CCC(N4CCCC4)CC3)cc2)cc1OCc1ccc(F)cc1F next?
% inhibition = 18

Can you check COc1cc(COc2cc(-c3ccc(C(=O)N4CCC(N5CCCC5)CC4)cc3)cnc2N)cc(OC)c1 next?
% inhibition = 17

Can you check Nc1ncc(-c2ccc(C(=O)N3CCC(N4CCCC4)CC3)cc2)cc1OCc1nc(CS(=O)(=O)c2ccccn2)no1 next?
% inhibition = 9

Can you check Nc1ncc(-c2ccc(C(=O)N3CCC(N4CCCC4)CC3)cc2)cc1OCc1nc2cccnc2[nH]1 next?
% inhibition = 17

Can you check Cc1oc(-c2ccccc2)nc1COc1cc(-c2ccc(C(=O)N3CCC(N4CCCC4)CC3)cc2)cnc1N next?
% inhibition = 19

Can you check Cc1ccc(-c2nnc(COc3cc(-c4ccc(C(=O)N5CCC(N6CCCC6)CC5)cc4)cnc3N)o2)cc1 next?
% inhibition = 18

Can you check Nc1ncc(-c2ccc(C(=O)N3CCC(N4CCCC4)CC3)cc2)cc1OCc1nnsc1Cl next?
% inhibition = 10

***
Value wanted: % inhibition (HGFR (Homo sapiens)) of entry Nc1ncc(-c2ccc(C(=O)N3CCC(N4CCCC4)CC3)cc2)cc1OCc1ccc2ccc(Cl)cc2n1
% inhibition = 24

Can you check Cn1nc(C(F)(F)F)c2cc(COc3cc(-c4ccc(C(=O)N5CCC(N6CCCC6)CC5)cc4)cnc3N)sc21 next?
% inhibition = 14

Can you check Nc1ncc(-c2ccc(C(=O)N3CCC(N4CCCC4)CC3)cc2)cc1OCc1cc(Cl)cc(Cl)c1 next?
% inhibition = 19

Can you check Cc1nc(COc2cc(-c3ccc(C(=O)N4CCC(N5CCCC5)CC4)cc3)cnc2N)n(C)n1 next?
% inhibition = 14

Can you check Cc1cccc(COc2cc(-c3ccc(C(=O)N4CCC(N5CCCC5)CC4)cc3)cnc2N)c1F next?
% inhibition = 28

Can you check Nc1ncc(-c2ccc(C(=O)N3CCC(N4CCCC4)CC3)cc2)cc1OCc1nc2ncccn2n1 next?
% inhibition = 19

Can you check Nc1ncc(-c2ccc(C(=O)N3CCC(N4CCCC4)CC3)cc2)cc1OCc1cccc(C(=O)Nc2cccnc2)c1 next?
% inhibition = 10

Can you check Nc1ncc(-c2ccc(C(=O)N3CCC(N4CCCC4)CC3)cc2)cc1OCc1nnnn1Cc1ccccc1 next?
% inhibition = 19

Can you check Nc1ncc(-c2ccc(C(=O)N3CCC(N4CCCC4)CC3)cc2)cc1OCc1ccncc1 next?
% inhibition = 10

Can you check Cc1cccnc1COc1cc(-c2ccc(C(=O)N3CCC(N4CCCC4)CC3)cc2)cnc1N next?
% inhibition = 16

Just for reference, patent US8106197B2 is where these values come from.
